test system: rodent lifetime carcinogenesis bioassay, tumor incidence TD50; assay: carcinogenic potency in animals, long-term in vivo studies, CPDB compilation (AID 1745844); conditions: rat; strain F344/DuCrj; males; in drinking water; site: esophagus; lesion: several types; types named in the paper; dosed 50 weeks; study length 50 weeks
Measured Attribute: TD50

q: Consider the compound shown here: "CCCCN(N=O)C(N)=O" What is its recorded TD50?
a: 3.02 mg/kg/day

====

system: rodent lifetime carcinogenesis bioassay, tumor incidence TD50; assay: carcinogenic potency in animals, long-term in vivo studies, CPDB compilation (AID 1745844); conditions: mouse; strain B6C3F1; females; by gavage; site: liver; lesion: hepatocellular adenoma + hepatocellular carcinoma + neoplastic nodule; dosed 103 weeks; study length 103 weeks
Measured Attribute: TD50 (mg/kg/day)
Numbers only, in mg/kg/day.

q: Reported TD50, molecule "COP(=O)(OC)OC" : ____
a: 6390

====

tested on: rodent lifetime carcinogenesis bioassay, tumor incidence TD50; experiment: carcinogenic potency in animals, long-term in vivo studies, CPDB compilation (AID 1745844); details: mouse; strain CDF1; males; in feed; site: liver; lesion: hepatocellular adenoma; dosed 84 weeks; study length 84 weeks
Assign TD50 to each entry below.
Answers are plain numbers, in mg/kg/day.

q: Need TD50 of "Nc1ccc2nc3ccccn3c2n1" , thanks.
a: 201

Now turn to the next compound.
q: Which TD50 reading was recorded for the compound "Cc1cnc2ccc3c(nc(N)n3C)c2n1" ?
a: 86.9

====

tested on: rodent lifetime carcinogenesis bioassay, tumor incidence TD50; assay: carcinogenic potency in animals, long-term in vivo studies, CPDB compilation (AID 1745844); conditions: rat; strain F344/DuCrj; males; in feed; site: stomach, glandular; lesion: adenocarcinoma; dosed 48 weeks; study length 96 weeks
Measured Attribute: TD50

q: Given "Oc1ccccc1O" , state its recorded TD50.
a: 387 mg/kg/day

====

system: rodent lifetime carcinogenesis bioassay, tumor incidence TD50; test: carcinogenic potency in animals, long-term in vivo studies, CPDB compilation (AID 1745844); conditions: mouse; strain B6C3F1; females; by gavage; site: any site (literature study); lesion: several types; types named in the paper; dosed 70 weeks; study length 83 weeks
Measured Attribute: TD50 (mg/kg/day)
Numbers only, in mg/kg/day.

q: Recorded TD50 of "CC(C)CCC[C@@H](C)[C@H]1CC[C@H]2[C@@H]3CC=C4C[C@@H](OC(=O)Cc5ccc(N(CCCl)CCCl)cc5)CC[C@]4(C)[C@H]3CC[C@]12C" , please.
a: 0.183

====

test system: rodent lifetime carcinogenesis bioassay, tumor incidence TD50; test: carcinogenic potency in animals, long-term in vivo studies, CPDB compilation (AID 1745844); details: hamster; strain Syrian Golden; females; by gavage; site: lung; lesion: several types; types named in the paper; dosed 59 weeks; study length 83 weeks
Measured Attribute: TD50

q: # get_value(readout='TD50', item= CC1CN(N=O)CC(C)O1 (stereo unspecified) )
a: 34.6 mg/kg/day

====

tested on: rodent lifetime carcinogenesis bioassay, tumor incidence TD50; experiment: carcinogenic potency in animals, long-term in vivo studies, CPDB compilation (AID 1745844); conditions: rat; strain MRC-Wistar; males; in drinking water; site: respiratory system; lesion: one or several types; types not named; dosed 52 weeks; study length 90 weeks
Measured Attribute: TD50

q: Name the reported TD50 value associated with the molecule "CCN(C#N)N=O"
a: 4.99 mg/kg/day

====

tested on: rodent lifetime carcinogenesis bioassay, tumor incidence TD50; experiment: carcinogenic potency in animals, long-term in vivo studies, CPDB compilation (AID 1745844); settings: rat; strain Fischer 344; males; in feed; site: pancreas; lesion: acinar-cell adenoma; dosed 12 weeks; study length 103 weeks
Measured Attribute: TD50 (mg/kg/day)
One number for each entry, in mg/kg/day.

q: Could you tell me which TD50 is on file for "OCC(CO)(CBr)CBr" ?
a: 193

====

system: rodent lifetime carcinogenesis bioassay, tumor incidence TD50; test: carcinogenic potency in animals, long-term in vivo studies, CPDB compilation (AID 1745844); settings: rat; strain Sprague-Dawley; females; by gavage; site: head; lesion: carcinoma; dosed 104 weeks; study length 123 weeks
Measured Attribute: TD50

q: Given the entry "CCc1ccccc1" , report its measured TD50.
a: 4170 mg/kg/day

Then this molecule:
q: Requested read-out: TD50. Entry: "Cc1cccc(C)c1"
a: 5620 mg/kg/day

====

tested on: rodent lifetime carcinogenesis bioassay, tumor incidence TD50; experiment: carcinogenic potency in animals, long-term in vivo studies, CPDB compilation (AID 1745844); conditions: rat; strain Charles River CD (Sprague-Dawley); females; inhaled; site: liver; lesion: hepatocellular adenoma; dosed 104 weeks; study length 106 weeks
The source made the active and inactive calls. How the calls were made is not given here.
Measured Attribute: TD50

q: Lookup: TD50 / rodent lifetime carcinogenesis bioassay, tumor incidence TD50 / "C=Cc1ccccc1"
a: 12200 mg/kg/day (inactive)

====

tested on: rodent lifetime carcinogenesis bioassay, tumor incidence TD50; assay: carcinogenic potency in animals, long-term in vivo studies, CPDB compilation (AID 1745844); details: mouse; strain B6C3F1; females; in feed; site: liver; lesion: hepatocellular adenoma + hepatocellular carcinoma + neoplastic nodule; dosed 78 weeks; study length 104 weeks
Would you kindly list TD50 for each of these compounds?
Give bare numbers, in mg/kg/day.

Completed entries (count: 2):
q: Field request: TD50 | item: "N[C@@H](Cc1c[nH]c2ccccc12)C(=O)O"
a: 30200

q: So what does the record say about TD50 for "NC(=O)c1cnccn1" ?
a: 10700

Now look at this one.
q: Return reported TD50; argument: "CCC(Br)(CC)C(=O)NC(N)=O"
a: 1950

====

system: rodent lifetime carcinogenesis bioassay, tumor incidence TD50; assay: carcinogenic potency in animals, long-term in vivo studies, CPDB compilation (AID 1745844); conditions: rat; strain Fischer 344; females; by gavage; site: multiple organs; lesion: mononuclear-cell leukemia; dosed 104 weeks; study length 105 weeks
Measured Attribute: TD50
Be sure to follow the number with its unit.

q: Dear colleague, I am looking for the recorded TD50 of the following compound: CCCC(Cl)CCCC(Cl)CCC(Cl)CCC(Cl)CCC(Cl)CCCC(Cl)CCC (stereo unspecified)
a: 345 mg/kg/day

====

tested on: rodent lifetime carcinogenesis bioassay, tumor incidence TD50; assay: carcinogenic potency in animals, long-term in vivo studies, CPDB compilation (AID 1745844); conditions: mouse; strain B6C3F1; females; by gavage; site: lung; lesion: alveolar/bronchiolar adenoma + alveolar/bronchiolar carcinoma; dosed 103 weeks; study length 104 weeks
Measured Attribute: TD50 (mg/kg/day)
One number for each entry, in mg/kg/day.

Before answering, review these 6 worked examples.
q: Item "CCCN(CCC)S(=O)(=O)c1ccc(C(=O)O)cc1" has what recorded TD50?
a: 1980

q: What value of measured TD50 is listed for "CN(C)c1ccccc1" ?
a: 276

q: Query (compound): "O=C1CCC(=O)O1" ; field requested: TD50
a: 4690

q: Could you tell me which TD50 is on file for CC(=O)OC1CC(C)OC(C)O1 (stereo not given) ?
a: 10400

q: Quick check: TD50 of "O=c1ccc2ccccc2o1" ?
a: 135

q: Can you share its TD50? I mean this compound: CCCCC(CC)COP(=O)(OCC(CC)CCCC)OCC(CC)CCCC (stereo not given)
a: 13700

List the reported TD50 of each compound below.
1. Nc1ccc([N+](=O)[O-])cc1O
2. Cc1cccc(C)c1
3. c1ccc2occc2c1
4. [Cl][Hg][Cl]
5. CCCC(Cl)CCCC(Cl)CCC(Cl)CCC(Cl)CCC(Cl)CCCC(Cl)CCC (stereo not given)
6. C=CC1CC=CCC1 (stereo not given)
7. Nc1ccc(O)c(N)c1

a:
[807000, 5130, 174, 40.8, "1.22e+06", 19000, 239]

Provide the reported TD50 of each entry below, same order.
1. O=[N+]([O-])c1ccc(Nc2ccc(Nc3ccccc3)c(S(=O)(=O)O)c2)c([N+](=O)[O-])c1
2. S=[Se]

a:
11600
137

====

tested on: rodent lifetime carcinogenesis bioassay, tumor incidence TD50; assay: carcinogenic potency in animals, long-term in vivo studies, CPDB compilation (AID 1745844); conditions: rat; strain Fischer 344; males; in drinking water; site: colon, ascending + colon + colon, descending; lesion: adenomatous polyp; dosed 97 weeks; study length 97 weeks
Measured Attribute: TD50 (mg/kg/day)
Numbers only, in mg/kg/day.

q: I would be grateful if you could share the reported TD50 for "COc1cc(-c2ccc(N=Nc3c(S(=O)(=O)O)cc4cc(S(=O)(=O)O)cc(N)c4c3O)c(OC)c2)ccc1N=Nc1c(S(=O)(=O)O)cc2cc(S(=O)(=O)O)cc(N)c2c1O" .
a: 310

====

test system: rodent lifetime carcinogenesis bioassay, tumor incidence TD50; test: carcinogenic potency in animals, long-term in vivo studies, CPDB compilation (AID 1745844); conditions: rat; strain Fischer 344; males; by gavage; site: lung; lesion: several types; types named in the paper; dosed 130 weeks; study length 130 weeks
Measured Attribute: TD50

q: // returns reported TD50 for input "CN(CCCO)N=O"
a: 1.09 mg/kg/day
